assay: yeast display, Sf9 membrane polyspecificity reagent, FACS + sequencing; frameworks hold sequencing errors
property: polyreactivity (PSR sort gate)

• QVQLLESGGGLVQAGGSLRLSCAASGFIFKGNAMGWYRQAPGKERELVAAITNRGGGTYYADSVKGRFTISRDNAKNTVYLLMNSLKPEDTAVYYCAKAYTLPFHPYDYWGQGTQVTVSS = high polyreactivity
• QVQLVESGGGLVQAGGSLRLSCAASGRTSRFYAMGWYRQAPGKERELVARITTRGGSTYYADSVKGRFTISRDNAKNTVYLQRNSLKPEDTAVYYCNTAFWYSRSMDYWGQGTQVTVSS = high polyreactivity

====

experiment: yeast display, Sf9 membrane polyspecificity reagent, FACS + sequencing; frameworks hold sequencing errors
property: polyreactivity (PSR sort gate)

Known polyreactivity (PSR sort gate) results, listed for orientation:
• QVHIVESGGGLVQAGGSLRLSCAASGINFGRNVMGWYRQPPGKERELVAAISWSGGRTYYADSVKGRFTISRDNAKNTVYFQIKSLITEDTAVYDCNARTGYYTGQYDYWGQGSQVTVSS = high polyreactivity
• QVQLVESGGGLVQAGGSLRLSCAASGRIFDVYAMGWYRQAHGKERELVARISDGGGSTYYADSVKGRFTISRDNAKNTVYLQMNSLKPEDTAVYYCASGGDLRLDRRFAFVSRGDYWGQGTQVTVSS = low polyreactivity
• QVQLVESGGGLVQAGGSLRLSCAASGGIFWTYAMGWYRQEPGKERELVAAISYSDGITYYADSGKGRFTISRDNAKNTVYFQMYSLKPEDTAVYYCAADPELAVPMYYWGQGTQVTVSS = low polyreactivity
• QVQLVESGGGLVQAGGSLRISCAASGSTFDFYTMGWYRQAHGKEREMVASISWSGRTYYADSVKGRFTISRDNAKNTVYLQMTSLKPEDTAVYYCARRYVVNRDWGDDYWGQGTQVTVSS = high polyreactivity

Next sequence, please.
Task: I'd like to know its polyreactivity (PSR sort gate). The sequence in question is QVQLVESGGGLVQAGGSLRLTCAASGRNFDYNARGWYRQAPGKEREFVAPISGRGGSTYYADSVKGRFTISRDNAKNRVYLQMNSLKPEDTAVYYCAADWRYRYSGRYDYWGQGTQVTVSS
Output: high polyreactivity

====

assay: yeast display, Sf9 membrane polyspecificity reagent, FACS + sequencing; frameworks hold sequencing errors
property: polyreactivity (PSR sort gate)

* QVQLQESGGGLVQAGGSLRLSCAASGYISHADEMGWYRQAPGKDHELVASISNGGSTNYADSVKGRFTISRDHAKNTVYLQMNSLNSEDTAVYYCAAWTGQVDIHYYWGQGTQVTVSS | low polyreactivity
* QVQLVESGRGLVQAGGSLRLSCAASGSIFGGNGRGWSRQAPGKERELVAAITYSGGSTYYADSVKGRFTISRDNAKNTVYFQMNSLKPEDTAVYYCAKPSRVSIGYDYWGQGTQVTVSS | low polyreactivity

====

assay: yeast display, Sf9 membrane polyspecificity reagent, FACS + sequencing; frameworks hold sequencing errors
property: polyreactivity (PSR sort gate)

• QVQLVESGGGLVQAGGSLRLSCAASGSTFYAKAMGLYRQAPGKEREFVAVITQSGGSTYYADSVKGRFTISRDNAKNTVYLQMNSLKPEDTAVYYCAKTHYRRSLSMYYWGQGTQVTVSS = low polyreactivity
• QVQLVESGGGLVQAGGSLRLSCAASGSIFEGYAMGWYRQAPGKERELVAVITTSGGDTYYADSVKGRFTISRDNAKNTVYLQMNSLKPEDTAVYYCNAADAVSDYPDFHIYDYWGQGTQVTVSS = low polyreactivity
• QVQLVESGGGLVQAGGSLRISCAASGRIFKVYAMGWYRQAPGKERELVAAMSRSGGSTYYADSVKGRFTISRDNAKKTVYFQMNSLKPEDTAVYYCHAYFVYGHACGYDYWGQGSQVTVSS = high polyreactivity
• QVQLVESGGGLVQAGGSLRLSCAASGRIFITNAMGWYRQAPGKERELVAAIRRRGGNTYYADSVKGRFTISRDNANNTVYLQINSLKPEDTAVYYCAVYPRPYKYNYWGQGTQVTVSS = high polyreactivity

Task: I'd like to know its polyreactivity (PSR sort gate). The sequence in question is QVQLVESGGGLVQAGGSLRLSCAASGRTFRRNVMGWYRQAPGKERELVAAISTRGGDTYYADSVKGRFTISRDNAKNTVYLQMNSLKPEDTAVYYCAAEYTYGYDYWGQGTQVTVSS
Output: high polyreactivity

====

assay: yeast display, Sf9 membrane polyspecificity reagent, FACS + sequencing; frameworks hold sequencing errors
property: polyreactivity (PSR sort gate)

Known polyreactivity (PSR sort gate) results, listed for orientation:
- QVQLVESGGGLVQAGGSLRLSCAASGRTFSWYAMGWYRPAPGQERELVAAITYSGGNTYYADSVKGRFTISRDNAKNTVYLQMNSLKPEDTAVYYCAKYGVTGQGSWSQRMGYWGQGTQVTVSS: high polyreactivity
- QVQLVESGGGLFQAGGSLRLSCAASGIIFQSYDMAWYRQAPGKERELVAAISRGGGSTYYADSVKGRFTISRDNAKNTVYLQMNSLIPEDTAVYYCAADYRGEYDYWGQGTQVTVSS: low polyreactivity
- QLQLVESVGGLVQAGGSLRLSCASSGLIFYVSAMGSYRQAPGKERELVAAITSSGASTYYADSVKGRFTISRDNAKNTVYLQMNSLKPEDTAVYYCAGRYAGGRRAYGYWGQGTQVSVSS: high polyreactivity
- QVQLVESGGGLVQAGGSLRLSCAASGRTFQLNAMGWYRQAPGKEREVVAAISTRGGSTYYADSVKGRFTISRDNAKNTVYLQMHRLKPEDTAVYYCAKDPSFTRGYKEGGGYDYWGQGTQVTVSS: high polyreactivity

Next sequence, please.
Task: I'd like to know its polyreactivity (PSR sort gate). The sequence in question is QVQLVESGGGLVQAGGSLRLSCAASGSIFVPYTMGWYTQAPGKERELVASISYSGGTTYYADSVKGRFTISRDNAKNTVYLQMNSLKPEDTAVYYCAADWDESFSYRRYRHYDYWGQGTQVTVSS
Output: low polyreactivity

====

assay: yeast display, Sf9 membrane polyspecificity reagent, FACS + sequencing; frameworks hold sequencing errors
property: polyreactivity (PSR sort gate)

Known polyreactivity (PSR sort gate) results, listed for orientation:
• QVQLVESGGGLVQAGGSLRLSCAASGRTFERNAMGWYRQAPGKEREFVAAITEIGGSTYYADSVKGRFTISRDNAKNTVYLQMNSLKPEDTAVYYCAKDGTYSPYDYWGQGTQVTVSS = low polyreactivity
• QVQLVESGGGLVQAGGSLRLSCAASGSILYYNAMGWYRQAPGKERELVAAITSGGSTYADSVKGRFTISRDNAKNTFYLQMNCLKPEDTAVYYCAADLYWYLSDYGTTLEHDYWGQGTQVTVSS = low polyreactivity
• QVQLVESGGGLVQAGGSLRLSCAASGSTFDDYAMVWYRQAPGKDREFVAAISFSGDSTYYADSVKGRFTISRDNAKNTVYLQMNRLKPEDTAVYYCAAEVPAEENGYAYDYWGQGTQVTVSS = low polyreactivity
• QVQLVESGGGLVQAGGSLRLSCAASGFIFWTYAMGWYRQAPGKERELVAAISSGGTITKYADSVKGRFTISRDNATNTVYLQMNSLKPEDTAVYYCNARENAVSLRDYWGQGTQVTVSS = high polyreactivity
• QGQLVESGGGLVQAGCSLRLSCAASGSTFSYYAMGWYRQAPGKETELVAAIRKSGGSTYYADSVKGRFTISRDNAKNTVYLQMNSLKPEDTAVNSCVAVFSYYGWYSRYDYWGQGTQVTVSS = low polyreactivity

Task: I'd like to know its polyreactivity (PSR sort gate). The sequence in question is QVQLVESGGGLVQAGGSLRLSCAASGFIFTRYAMGWYRQAPGKERELVAAITRSGGRTYYADSVKGRFTISRDNAKNTVYLQMNSLKPEDTAVYYCAAEGSVGLYGLIMHYWGLGTQVTVSS
Output: high polyreactivity

====

assay: yeast display, Sf9 membrane polyspecificity reagent, FACS + sequencing; frameworks hold sequencing errors
property: polyreactivity (PSR sort gate)

- QVQLVESGGGLVQAGGSLRLSCAASGFTFRYYAMGWYRQAPGKEREFVAAITRSGGRTYYADSVKGRFTISRDNAKNTVYLQMNSLKPEDTAVYYCAARYVSRFDWGQGTQVTVSS: high polyreactivity
- QVQLVESGGVLVQAGGSLRLSCAASGITFPGYAMGWYRKAPGKERELVAAISAIGGRTYYADSVKGRFTISRYNAKNTVYLQMNSLKPEDTAVYYCNVLPYGGKKPTLFDYWGQGTQVTVSS: high polyreactivity

====

assay: yeast display, Sf9 membrane polyspecificity reagent, FACS + sequencing; frameworks hold sequencing errors
property: polyreactivity (PSR sort gate)

Known polyreactivity (PSR sort gate) results, listed for orientation:
* QVQLVESGGGLVQAGGSLRLSCAASGRTFYDYAMGWYRQAPGKERELVADITSGGGNTYYADSVKGRFTISRDNAKNTVYLQMNSLKPEDTAVYYCNADYDLYFSGWYDYWGQGTQVTVSS | low polyreactivity
* QVQLVESGGGLVQAGGSLRLSCAASGRLCGIYTMGWYRQAPGKERELVAAISKRGSSTSYADSVKGRFTISRDNAKNTVYLQMNSQKPEDTAVYYCAARYGYSYRYSGFDYWGQGTQVTVSS | high polyreactivity
* QVQLVESGGGLVQPGGSLRLSCAASGRTYYINAMGWYRQAPGKERELVATISKSGGSTNYADSEKGRFTISRDNAMNTFYLQMNSLKPEDTAVYYCAADTSGGSWGRGRWKFGYWGQGTQVTVSS | high polyreactivity
* QVQLVESGGGLVQAGGSLRLSCAASGITFDYYAMGWYRQAPGKERELVAAIRSGGSTNYADSVKGRFTISRDNAKNTVYLQMNSLKPVDTAVYYCAAVRYYPWYDYWGQGTQVTVSS | high polyreactivity
* QVQLVESGGGLVQAGGSLRLSCAASGFTFSWNAMGWYRQAPGKEREFVAAITSSGGSTYADSVKGRFTISRDNAKNTVYLQMNSLKPEDTAVYYCAAGGFSQHGHGYWGQGTQVTVSS | high polyreactivity

Task: I'd like to know its polyreactivity (PSR sort gate). The sequence in question is QVQLVESGGGLVQAGGSLRLSCAASGSTFPQYAMGWSRQAPGKERELVAAISWSGGRTYYADSVKGRFTISRDNAKNTVYLQMNSLKPEDTAVYYCAATYPGQYGYNYWGQGTQVTVSS
Output: high polyreactivity
